Provenance of the data: PubChem BioAssay

Target Under Test: Fibroblast growth factor 10 (Homo sapiens)
Method Notes: compounds binding fibroblast growth factor 10 – biochemical, small-molecule microarray, 635 nm fluorescence, primary screen (AID 1102)
Details: FGF10 binding, fluorescence 635 nm, higher = more signal
Readout Type: composite z-score
Answer as a number with no unit attached.

[[record]]
compound = "COc1ccc([Si](C)(C)[C@@H]2[C@@H](CCO)O[C@]3(C(=O)N(Cc4cccc(N5CCOC5=O)c4)c4ccccc43)[C@H]2C)cc1"
readout_type = "composite z-score"
experimental_result = 0.415

[[record]]
compound = "COc1ccc([Si](C)(C)[C@@H]2[C@@H](CC(=O)N3CCC[C@H]3CO)O[C@]3(C(=O)N(Cc4cccc(I)c4)c4ccccc43)[C@H]2C)cc1"
readout_type = "composite z-score"
experimental_result = 1.05

[[record]]
compound = "CCC(CC)C(O)C1C=CC2C(=O)N(c3ccccc3)C(=O)C2N1Nc1ccccc1 (centres undefined)"
readout_type = "composite z-score"
experimental_result = 0.988


Next, consider the following compound.
Which composite z-score is reported for this compound? "CCOC(=O)C1=CC[C@@H](c2ccccc2)N(S(=O)(=O)c2ccc(C)cc2)[C@H]1c1ccc(CC)cc1"
0.393
